Biological target: MEK1 (Homo sapiens, UniProt Q02750)
Construct: purchased SignalChem M02-14H
Sequence (Q02750 whole entry): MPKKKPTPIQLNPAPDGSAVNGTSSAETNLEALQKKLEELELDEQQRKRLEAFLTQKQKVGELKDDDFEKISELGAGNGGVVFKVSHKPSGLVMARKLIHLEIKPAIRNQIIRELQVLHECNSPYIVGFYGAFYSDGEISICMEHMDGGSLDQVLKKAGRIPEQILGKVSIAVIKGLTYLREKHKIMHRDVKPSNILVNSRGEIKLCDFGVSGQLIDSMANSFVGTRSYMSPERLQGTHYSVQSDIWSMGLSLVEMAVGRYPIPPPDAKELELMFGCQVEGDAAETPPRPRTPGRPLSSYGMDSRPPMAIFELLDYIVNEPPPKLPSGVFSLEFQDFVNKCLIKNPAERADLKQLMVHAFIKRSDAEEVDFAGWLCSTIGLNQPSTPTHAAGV
Sequence (P15056 445-723 partner limits assumed): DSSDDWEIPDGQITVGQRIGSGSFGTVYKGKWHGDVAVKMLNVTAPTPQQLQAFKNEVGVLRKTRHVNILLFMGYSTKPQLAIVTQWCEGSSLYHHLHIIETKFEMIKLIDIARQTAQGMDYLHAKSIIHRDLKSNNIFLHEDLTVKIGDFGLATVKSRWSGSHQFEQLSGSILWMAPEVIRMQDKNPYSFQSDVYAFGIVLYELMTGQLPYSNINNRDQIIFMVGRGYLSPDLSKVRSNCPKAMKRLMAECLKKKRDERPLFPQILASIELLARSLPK
Test: MEK1 kinase cascade assay (ADP-Glo), inhibition of MEK1 kinase activity
Format: biochemical
Details: 25 nM BRAF, 6.25 nM MEK1, 0.5 μM ERK, 1 mM ATP; 20 min preincubation, 1 hr at 25° C.; read-out: BRAF ADP Glo kinase assay V3 (IC50)

| Structure | Measured On | IC50 |
| --- | --- | --- |
| CNS(=O)(=O)Nc1nccc(CN2C(=O)Oc3cc(Oc4cccnn4)ccc3C23COC3)c1F | MEK1 (Homo sapiens, UniProt Q02750) | 5 to 50 nM |
| CNS(=O)(=O)Nc1nccc(CN2C(=O)Oc3cc(Oc4cccnn4)ccc3C23CCC3)c1F | MEK1 (Homo sapiens, UniProt Q02750) | < 5 nM |
| CNS(=O)(=O)Nc1cccc(CN2C(=O)Oc3cc(OC(=O)N(C)C)ccc3[C@H]2C)c1F | MEK1 (Homo sapiens, UniProt Q02750) | 5 to 50 nM |
| CN(C)C(=O)Oc1ccc2c(c1)OC(=O)N(Cc1cccc(NS(=O)(=O)C3CC3)c1F)C2 | MEK1 (Homo sapiens, UniProt Q02750) | 5 to 50 nM |
| CNS(=O)(=O)Nc1cccc(CN2Cc3ccc(Oc4ncccn4)c(F)c3OC2=O)c1F | MEK1 (Homo sapiens, UniProt Q02750) | 5 to 50 nM |
| CNS(=O)(=O)Nc1cccc(CN2C(=O)Oc3cc(OC(=O)N(C)C)c(Cl)cc3[C@@H]2C)c1F | MEK1 (Homo sapiens, UniProt Q02750) | 5 to 50 nM |
| CNS(=O)(=O)Nc1cccc(CN2Cc3ccc(Oc4cccnn4)cc3OC2=O)c1F | MEK1 (Homo sapiens, UniProt Q02750) | < 5 nM |
| CN(C)C(=O)Oc1ccc2c(c1)OC(=O)N(Cc1cccc(NS(=O)(=O)N3CCOCC3)c1F)C2 | MEK1 (Homo sapiens, UniProt Q02750) | 5 to 50 nM |

----------
Tested on: BRAF-MEK1
Experiment: BRAF-MEK TR-FRET assay, stabilization of MEK1 and BRAF interaction
Assay type: binding
Conditions: 4 nM BRAF, 10 nM MEK, 100 μM ATP; 1 hr at 25° C.; read-out: BRAF-MEK TR-FRET Assay (EC50, fold stabilization)
Observation Type: EC50

| Molecule | Reported Value |
| --- | --- |
| CNS(=O)(=O)Nc1cccc(CN2C(=O)Oc3cc(Oc4cccnn4)c(F)cc3C23COC3)c1F | < 50 nM |
| CN(C)S(=O)(=O)Nc1nccc(CN2C(=O)Oc3cc(Oc4cccnn4)ccc3C23CCC3)c1F | 200 to 1000 nM |
| CNS(=O)(=O)Nc1cccc(CN2C(=O)Oc3c(ccc(OC(=O)N(C)C)c3F)[C@H]2C)c1F (single isomer, unassigned) | 200 to 1000 nM |
| CNS(=O)(=O)Nc1cccc(CN2Cc3cc(C)c(OC(=O)N(C)C)cc3OC2=O)c1F | 200 to 1000 nM |
| CNS(=O)(=O)Nc1cccc(CN2C(=O)Oc3cc(Oc4cccnn4)ccc3C23COC3)c1F | 50 to 200 nM |
| CNS(=O)(=O)Nc1nccc(CN2C(=O)Oc3cc(Oc4cccnn4)cnc3C23CC3)c1F | < 50 nM |
| CN(C)C(=O)Oc1ccc2c(c1)OC(=O)N(Cc1cccc(NS(=O)(=O)N3CC4(COC4)C3)c1F)C2 | 200 to 1000 nM |
